- Read-out: Intercellular Adhesion Molecule 1 (ICAM1), ICAM1 (gene 3383)
- measurement.protocol: BSK_3C_ICAM1: BioMAP Diversity Plus: 3C Assay for Intercellular Adhesion Molecule 1 (ICAM1) Biomarker Activity (AID 2283003)
- condition.info: primary human endothelial cells (HUVEC); actives raise or lower the signal
The source made the active and inactive calls. The calls were made as follows: active = hit-call score of the fitted dose curve at least 0.9, where 1 is the maximum; inactive = score below 0.9.
One label from this list, please: True = active, False = inactive

Example cases with answers are listed next.
Task item: Look up the recorded call for `O=C(O)COc1cc(Cl)c(Cl)cc1Cl` in this test.
Reply: False

Task item: Recorded call for `Cc1cc(C(C)(C)c2ccc(O)c(C)c2)ccc1O` ?
Reply: False

Task item: Recorded test call requested for CC(C)=CC1C(C(=O)OCc2cccc(Oc3ccccc3)c2)C1(C)C (stereo not drawn)
Reply: False

Task item: Which result was noted for this molecule in the test: `NC(=O)CCl`
Reply: False

Task item: Which outcome was entered for the molecule `c1ccc2sc(SNC3CCCCC3)nc2c1` in this test?
Reply: False

New cases:
Task item: GET /call?item= `Cc1cc(C)cc(C)c1` returns the recorded outcome of this test.
Reply: False

Task item: Please indicate how the test categorized OC(Cc1ccccc1Cl)(Cn1cncn1)C1(Cl)CC1 (stereo not drawn) .
Reply: False

---

- measurement.protocol: ATG_NFI_CIS: Attagene CIS-FACTORIAL HepG2 Assay for human Nuclear Factor I (NFI) (AID 2282989)
- condition.info: HepG2 cis-regulatory reporter, NFI response element transcription; actives raise or lower the signal
Activity calls are given as the source filed them. Rule for the calls: active = hit-call score of the fitted dose curve at least 0.9, where 1 is the maximum; inactive = score below 0.9.
Choose one outcome from this list and give only that: 1 (yes) = active, 0 (no) = inactive

Example entries and their recorded answers appear below.
Task item: For CCCCC(CC)C(=O)Cl (configuration not stated) , which call appears in the assay record?
Reply: 0 (no)

Task item: Which outcome was entered for the compound `CCNc1nc(NCC)nc(SC)n1` in this test?
Reply: 0 (no)

Task item: Per the assay record, what outcome was assigned to `Cl[C@H]1OCCO[C@@H]1Cl` ?
Reply: 0 (no)

Task item: Recorded test outcome, item `CCC[N+](CCC)(CCC)CCC`
Reply: 0 (no)

Task item: Which outcome was assigned to `Clc1cccc(Cl)c1` in this test?
Reply: 0 (no)

Task item: Look up the recorded call for CCOC(=O)C(SP(=S)(OC)OC)c1ccccc1 (configuration not stated) in this test.
Reply: 0 (no)

Next:
Task item: In this assay, the call recorded for `CC(C)(c1ccc(O)c(-c2ccccc2)c1)c1ccc(O)c(-c2ccccc2)c1` was what?
Reply: 0 (no)

---

- measurement.protocol: ATG_RORE_CIS: Attagene CIS-FACTORIAL HepG2 Assay for human RAR-related Orphan Receptor Element (RORE) (AID 2282959)
- condition.info: HepG2 Attagene cis-factorial RORE reporter, mRNA; actives raise or lower the signal
Activity calls are given as the source filed them. How the source made its calls: active means hit-call score of the fitted dose curve at least 0.9, where 1 is the maximum; inactive means score below 0.9.
Reply using exactly one outcome from active, inactive

Task item: // outcome(item) with item = CC(C)C(C)(N)C#N (centres undefined)
Reply: inactive

Task item: How did this test come out for `CN(C)c1ccc(N=O)cc1` ?
Reply: inactive

Task item: Hi, do you know how `OCC(c1ccc(Cl)cc1)c1ccc(Cl)cc1` came out in this test?
Reply: inactive

Task item: What is the recorded call for this molecule in the test? `O=C(O)CC(O)(CC(=O)O)C(=O)O`
Reply: inactive

Task item: What classification did `N#Cc1ccccc1N` end up with in this test?
Reply: inactive

Task item: Returns: the outcome recorded for `CC(C)CP(=S)(S)CC(C)C` in this assay.
Reply: inactive

***
Task item: How was `Cc1cc(-c2cc(C)c(N)c(C)c2)cc(C)c1N` classified in this test?
Reply: inactive

Task item: Answer briefly: the call reported for `CCCCCCCCCCCCCl` in this assay.
Reply: inactive

Task item: Query: recorded result category for `CCCCCCCCCCCCN(C)C` in this test
Reply: inactive

Task item: Could you kindly confirm the outcome this assay logged for `Cc1c([N+](=O)[O-])c(C)c([N+](=O)[O-])c(C(C)(C)C)c1[N+](=O)[O-]` ?
Reply: inactive

Task item: Hi, sorry to bother you, what did the test record for `C#C[C@]1(O)CC[C@H]2[C@@H]3CCC4=CC(=O)CC[C@]4(C)[C@H]3CC[C@@]21C` ?
Reply: inactive

---

- measurement.protocol: ATG_M_06_CIS: Attagene CIS-FACTORIAL HepG2 Assay for M06 Transcription Factor (Internal Marker) (AID 2282950)
- condition.info: HepG2 Attagene CIS-FACTORIAL M06 internal marker reporter; actives raise or lower the signal
- Procedure: ATG_CIS is a cell-based, multiplexed-readout assay that uses HepG2, a human liver cell line, with measurements taken at 24 hours after chemical dosing in a 24-well plate.ATG_M_06_CIS is one of 52 assay component(s) measured or calculated from the ATG_CIS assay. […] This assay endpoint, ATG_M_06_CIS, was analyzed with bidirectional fitting relative to DMSO as the negative control and baseline of activity. […]
Calls of active or inactive are those of the source. Rule for the calls: active = hit-call score of the fitted dose curve at least 0.9, where 1 is the maximum; inactive = score below 0.9.
Answer with one of the outcomes given here: active, inactive

Solved cases below.
Task item: Per the assay record, what outcome was assigned to `CCOP(=S)(OCC)Oc1ccc(Cl)cc1Cl` ?
Reply: inactive

Task item: Could you please tell me the result logged for `CC(c1ccc(O)cc1)c1ccc(O)cc1` in this assay?
Reply: inactive

Task item: Give the logged outcome of this assay for the following compound: `CCOc1cc(C=O)ccc1O`
Reply: inactive

# input for lookup
Task item: Lab log entry: `CC(C)[N+](=O)[O-]` — outcome as called in the assay?
Reply: inactive

---

- tested.system: X-box-binding protein 1 (Homo sapiens) (UniProt P17861)
- Sequence (P17861 whole entry, looked up): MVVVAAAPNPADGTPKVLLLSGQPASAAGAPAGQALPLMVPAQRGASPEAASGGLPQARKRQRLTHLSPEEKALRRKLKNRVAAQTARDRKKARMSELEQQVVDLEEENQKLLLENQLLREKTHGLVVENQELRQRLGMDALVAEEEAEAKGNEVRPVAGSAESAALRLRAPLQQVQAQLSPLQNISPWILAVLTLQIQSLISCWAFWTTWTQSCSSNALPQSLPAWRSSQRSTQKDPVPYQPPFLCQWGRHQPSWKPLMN
- measurement.protocol: ATG_Xbp1_CIS: Attagene CIS-FACTORIAL HepG2 Assay for human X-box Binding Protein 1 (XBP1) (AID 2282972)
- condition.info: HepG2 XBP1 cis-element reporter, Attagene multiplex; actives raise or lower the signal
Activity calls are given as the source filed them. How the source made its calls: active means hit-call score of the fitted dose curve at least 0.9, where 1 is the maximum; inactive means score below 0.9.
// classify into active, inactive

Worked examples follow.
Task item: What did the test return for `Cc1cc(C(C)(C)c2ccc(O)c(C)c2)ccc1O` ?
Reply: active

Task item: Hi, sorry to bother you, what did the test record for `c1ccc2sc(SNC3CCCCC3)nc2c1` ?
Reply: inactive

New cases:
Task item: Dear all, I need the recorded test outcome for `CCC[CH2][Sn]([CH2]CCC)([CH2]CCC)[CH2]CCC` , thank you.
Reply: inactive

Task item: Give the logged outcome of this assay for the following molecule: `O=[N+]([O-])c1cc([As](=O)(O)O)ccc1O`
Reply: inactive

---

- tested.system: Paired box protein Pax-6 (Homo sapiens) (UniProt P26367)
- Sequence (P26367 whole entry, looked up): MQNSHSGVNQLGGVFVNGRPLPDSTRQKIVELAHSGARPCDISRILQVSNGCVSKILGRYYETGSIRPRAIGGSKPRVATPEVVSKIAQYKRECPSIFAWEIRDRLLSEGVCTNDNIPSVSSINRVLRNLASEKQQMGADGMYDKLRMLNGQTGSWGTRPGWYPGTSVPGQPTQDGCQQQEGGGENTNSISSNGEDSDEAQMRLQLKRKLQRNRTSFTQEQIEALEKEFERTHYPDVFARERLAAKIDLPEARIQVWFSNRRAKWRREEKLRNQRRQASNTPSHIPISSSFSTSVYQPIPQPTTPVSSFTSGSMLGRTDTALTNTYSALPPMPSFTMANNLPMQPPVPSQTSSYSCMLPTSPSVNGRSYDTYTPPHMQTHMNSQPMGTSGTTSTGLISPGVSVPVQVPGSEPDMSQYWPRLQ
- measurement.protocol: ATG_Pax6_CIS: Attagene CIS-FACTORIAL HepG2 Assay for human Paired Box 6 (PAX6) (AID 2282956)
- condition.info: HepG2 CIS-FACTORIAL PAX6 reporter transcription, RNA readout; actives raise or lower the signal
The source made the active and inactive calls. The calls were made as follows: active = hit-call score of the fitted dose curve at least 0.9, where 1 is the maximum; inactive = score below 0.9.
Classes to choose from: active, inactive

Task item: What did this assay record as the result for `CCOc1cc(C=O)ccc1O` ?
Reply: inactive

New cases:
Task item: What call does the record list for `CC(c1ccccc1)(c1ccc(O)cc1)c1ccc(O)cc1` ?
Reply: active

Task item: Record request — test call for `COc1nn(C(=O)NS(=O)(=O)c2ccccc2OC(F)(F)F)c(=O)n1C`
Reply: inactive

Task item: GET /call?item= `ClCc1ccccc1CCl` returns the recorded outcome of this test.
Reply: active

---

- tested.system: Cellular tumor antigen p53 (Homo sapiens) (UniProt P04637)
- Sequence (P04637 whole entry, looked up): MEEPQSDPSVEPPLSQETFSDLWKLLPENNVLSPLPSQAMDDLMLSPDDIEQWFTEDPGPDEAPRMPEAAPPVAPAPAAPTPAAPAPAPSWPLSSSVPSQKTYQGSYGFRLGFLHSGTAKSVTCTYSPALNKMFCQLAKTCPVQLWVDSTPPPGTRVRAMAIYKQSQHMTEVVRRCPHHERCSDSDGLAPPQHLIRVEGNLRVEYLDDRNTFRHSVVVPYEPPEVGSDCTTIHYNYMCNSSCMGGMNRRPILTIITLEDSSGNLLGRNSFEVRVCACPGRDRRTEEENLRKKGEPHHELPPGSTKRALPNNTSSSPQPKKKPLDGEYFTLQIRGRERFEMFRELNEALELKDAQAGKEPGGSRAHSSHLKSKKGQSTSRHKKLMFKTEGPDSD
- measurement.protocol: TOX21_p53_BLA_p2_ratio: Tox21 HCT-116 p53 Agonism Beta-lactamase Assay, Ratio, Phase 2 (AID 2283592)
Records with an inconclusive call do not appear. The source made the active and inactive calls. Rule for the calls: active = hit-call score of the fitted dose curve at least 0.9, where 1 is the maximum; inconclusive = response in the unintended direction; inactive = score below 0.9.
Outcomes you can answer with include only these: true (1) = active, false (0) = inactive

As a guide, the following entries are already answered.
Task item: Just curious, what result did `O=[N+]([O-])c1c2ccccc2cc2ccccc12` get here?
Reply: false (0)

Task item: What classification did `CCCCOC(C)=O` end up with in this test?
Reply: false (0)

Task item: Just curious, what result did `Nc1nc(N)nc(Cl)n1` get here?
Reply: false (0)

Task item: Hey, what did the test say about `Cl[C@H]1OCCO[C@@H]1Cl` ?
Reply: false (0)

Task item: Could you check what this test reported for `BrCc1ccc(Br)cc1` ?
Reply: false (0)

More entries:
Task item: Any idea what this test logged for `Oc1ccc(Cc2ccc(O)cc2)cc1` ?
Reply: false (0)

Task item: What is the recorded call for this compound in the test? CCC(C)(C#N)N=NC(C)(C#N)CC (stereo not drawn)
Reply: false (0)

---

- measurement.protocol: BSK_LPS_PGE2: BioMAP Diversity Plus: LPS Assay for Prostaglandin E2 (PGE2) Biomarker Activity (AID 2283082)
- condition.info: primary human HUVEC with PBMC; actives raise or lower the signal
- Protocol: BSK_LPS is a cell-based, multiplexed-readout assay that uses umbilical vein endothelium and peripheral blood mononuclear cells, a human vascular primary cell co-culture, with measurements taken at 24 hours after chemical dosing in a 96-well plate.BSK_LPS_PGE2 is an assay component measured in the BSK_LPS assay. It measures PGE2 antibody related to regulation of gene expression using ELISA technology.Data from the assay component BSK_LPS_PGE2 was analyzed into 1 assay endpoint. […]
Active and inactive are the calls of the source. How the source made its calls: active means hit-call score of the fitted dose curve at least 0.9, where 1 is the maximum; inactive means score below 0.9.
Response enum: active, inactive

Please review the following examples before continuing.
Task item: Write down the call the test reported for this compound. Item: `OCCN(CCO)CCO`
Reply: inactive

Task item: Any idea what this test logged for `CCOP(=S)(OCC)OP(=S)(OCC)OCC` ?
Reply: inactive

Others:
Task item: Which outcome was assigned to `Cc1cc(C(C)(C)c2ccc(O)c(C)c2)ccc1O` in this test?
Reply: active

The reported measurements were obtained from PubChem BioAssay (EPA / NIEHS).
